Assay: yeast display, Sf9 membrane polyspecificity reagent, FACS + sequencing; frameworks hold sequencing errors
readout.label: polyreactivity (PSR sort gate)

Observe how each entry below is paired with its result.
# residues, polyreactivity (PSR sort gate)
measured = [
    ("QVQLVESGGGLVQAAGSLRLSCAASGLTFPFYTMGWYIQAPGKARELVAAISRRGGSTYYADSVKGRFTISRDNAKNTVYLQMNSLKPEDTAVYYCAADKYSWYDYWGQGTQVTVSS", "low polyreactivity"),
    ("QVQLVESGGGLVQAGGSLRLSCAASGLTFRYYAMGWYRQAPGKERELVAAITASVGSTYYADSVKGRFTISRDNAKNTVYLQMNSLKPEDTAVYYCAAEGTPGPGGGYYWGQGTQVTVSS", "low polyreactivity"),
    ("QVQLVESGGGLVQAGGSLRLSCAASGRTFWQYSMGWYRQAPGKERELVAAITSSGGSTYYADSVKGRFTISRDNAKNTVYLQMNSLKPEDTAVYYCAADTRYYRYYYWGQGTQVTVSS", "high polyreactivity"),
    ("QVQLVESGGGLVQAGGSLRLSCAASGLTFVVYAMGWYRQATGKERELVASITSSGGRTYYADSVKGRFTISRDNAKNTVYLQMTSLKPEDTAVYYCAAVRRRTRYGYRYDYWGQGTQVTVSS", "high polyreactivity"),
]

Consider now this further sequence.
The sequence identified as QVQLVESGGGLVQAGGSLRLSCAASGGIFSRYGLGWYRQAPGKERELVAAITGRGGSTYYADSVKGRFTISRDNAKNTVYLQMNSLKPEDTAVDYCAAKVRSLNWFDYWGQGTQVTVSS registered its polyreactivity (PSR sort gate) at high polyreactivity
